Data provenance: ChEMBL document CHEMBL3885861

- Species: Rattus norvegicus
- test-method-notes: Open TG-GATES - Regimen: Daily Repeat
- Assay type: toxicity, organism-based, Sprague-Dawley
- Set-up: regimen Daily Repeat, gender Male, age 6 weeks
- condition-label: in vivo, po, 300 mg/kg, […], tissue Blood, route gavage, dose level Middle, time 14 day
Readings of Fbg for the listed compounds
experimental-readout: Fbg

CN/C(=N/CCSCc1nc[nH]c1C)NC#N [CIMETIDINE]: 222.4 mg/dL
O=C(OC[C@H]1O[C@@H](OC(=O)c2cc(O)c(O)c(OC(=O)c3cc(O)c(O)c(O)c3)c2)[C@H](OC(=O)c2cc(O)c(O)c(OC(=O)c3cc(O)c(O)c(O)c3)c2)[C@@H](OC(=O)c2cc(O)c(O)c(OC(=O)c3cc(O)c(O)c(O)c3)c2)[C@@H]1OC(=O)c1cc(O)c(O)c(OC(=O)c2cc(O)c(O)c(O)c2)c1)c1cc(O)c(O)c(OC(=O)c2cc(O)c(O)c(O)c2)c1 [TANNIC ACID]: 261.2 mg/dL
CNC(=C[N+](=O)[O-])NCCSCc1ccc(CN(C)C)o1 [RANITIDINE]: 239.2 mg/dL
COC(=O)C1=C(C)NC(C)=C(C(=O)OC)C1c1ccccc1[N+](=O)[O-] [NIFEDIPINE]: 281.4 mg/dL
CCOc1ccc(NC(C)=O)cc1 [PHENACETIN]: 273.2 mg/dL
Cc1nnc2n1-c1ccc(Cl)cc1C(c1ccccc1Cl)=NC2 [TRIAZOLAM]: 245.8 mg/dL

----------
- Species: Rattus norvegicus
- test-method-notes: Open TG-GATES - Regimen: Daily Repeat
- Assay type: toxicity, organism-based, Sprague-Dawley
- Design: regimen Daily Repeat, gender Male, age 6 weeks
- condition-label: in vivo, po, 100 mg/kg, […], tissue Blood, route gavage, dose level Low, time 28 day
Readings of MCH for the listed compounds
experimental-readout: MCH (pg)

CNC(=C[N+](=O)[O-])NCCSCc1ccc(CN(C)C)o1: 19.8
CN/C(=N/CCSCc1nc[nH]c1C)NC#N: 19.2
CCOc1ccc(NC(C)=O)cc1: 19
COC(=O)C1=C(C)NC(C)=C(C(=O)OC)C1c1ccccc1[N+](=O)[O-]: 20.7
O=C(OC[C@H]1O[C@@H](OC(=O)c2cc(O)c(O)c(OC(=O)c3cc(O)c(O)c(O)c3)c2)[C@H](OC(=O)c2cc(O)c(O)c(OC(=O)c3cc(O)c(O)c(O)c3)c2)[C@@H](OC(=O)c2cc(O)c(O)c(OC(=O)c3cc(O)c(O)c(O)c3)c2)[C@@H]1OC(=O)c1cc(O)c(O)c(OC(=O)c2cc(O)c(O)c(O)c2)c1)c1cc(O)c(O)c(OC(=O)c2cc(O)c(O)c(O)c2)c1: 19.9
Cc1nnc2n1-c1ccc(Cl)cc1C(c1ccccc1Cl)=NC2: 19

----------
Readings of K for the listed compounds
- Species: Rattus norvegicus
- test-method-notes: Open TG-GATES - Regimen: Single
- Type: toxicity, organism-based, Sprague-Dawley
- Set-up: regimen Single, gender Male, age 6 weeks
- condition-label: in vivo, po, 100 mg/kg, 6 h, tissue Plasma, route gavage, dose level Low
experimental-readout: K (meq/L)

Cc1nnc2n1-c1ccc(Cl)cc1C(c1ccccc1Cl)=NC2 [TRIAZOLAM]: 4.2
CNC(=C[N+](=O)[O-])NCCSCc1ccc(CN(C)C)o1 [RANITIDINE]: 3.8
CN/C(=N/CCSCc1nc[nH]c1C)NC#N [CIMETIDINE]: 3.7
O=C(OC[C@H]1O[C@@H](OC(=O)c2cc(O)c(O)c(OC(=O)c3cc(O)c(O)c(O)c3)c2)[C@H](OC(=O)c2cc(O)c(O)c(OC(=O)c3cc(O)c(O)c(O)c3)c2)[C@@H](OC(=O)c2cc(O)c(O)c(OC(=O)c3cc(O)c(O)c(O)c3)c2)[C@@H]1OC(=O)c1cc(O)c(O)c(OC(=O)c2cc(O)c(O)c(O)c2)c1)c1cc(O)c(O)c(OC(=O)c2cc(O)c(O)c(O)c2)c1 [TANNIC ACID]: 4.5
COC(=O)C1=C(C)NC(C)=C(C(=O)OC)C1c1ccccc1[N+](=O)[O-] [NIFEDIPINE]: 5.2
